assay: in vivo; conditions: male, Sprague Dawley, rat, serum, iv, 10 mg/kg
Residues, ends and D or L forms follow the SMILES beside them. *: point of attachment. X1 = OC[C@H]1O[C@@H](O[C@H]2[C@H](O)[C@@H](O)[C@H](*)O[C@@H]2CO)[C@H](O)[C@@H](O)[C@H]1O
Experimental Readout: half-life

Query: What value of measured half-life is listed for CC[C@H](C)[C@H](NC(=O)[C@H](Cc1ccc(O)cc1)NC(=O)[C@@H](NC(=O)[C@H](CCCNC(=N)N)NC(=O)[C@@H](N)CC(=O)O)C(C)C)C(=O)N[C@@H](Cc1c[nH]cn1)C(=O)N[C@@H](CO[C@@H]1O[C@H](CO)[C@@H](O[C@@H]2O[C@H](CO)[C@H](O)[C@H](O)[C@H]2O)[C@H](O)[C@H]1O)C(N)=O [PNA6] (H-DRVYIHS(X1)-NH2) ?
Result: 22.1 min
